FYI, the data here is from ChEMBL document CHEMBL2384945.

# experimental.details: Cmax in mouse at 100 mg/kg, po
# Assay type: ADME, organism-based
# Set-up: dose 100 mg/kg, route oral
# details: in vivo

smiles.data: COc1ccc(C2=N[C@@H](c3ccc(Cl)cc3)[C@@H](c3ccc(Cl)cc3)N2C(=O)N2CCNC(=O)C2)c(OC(C)C)c1
Cmax [ng/mL]: 12100

* * *

# Tested on: RKO
# experimental.details: cells
# details: Homo sapiens, 120 h
# Description: Cytotoxicity against human RKO cells expressing wild type p53 assessed as cell viability after 5 days by MTT assay
readout: IC50 (nM)

smiles.data: CCOc1cc(C(C)(C)C)ccc1C1=N[C@@](C)(c2ccc(Cl)cc2)[C@@](C)(c2ccc(Cl)cc2)N1C(=O)N1CCN(C(C)=O)CC1
readout: IC50
recorded.measurement: 500
//
smiles.data: CCOc1cc(C(C)(C)C)ccc1C1=N[C@@](C)(c2ccc(Cl)cc2)[C@@](C)(c2ccc(Cl)cc2)N1C(=O)N1CCNC(=O)C1
readout: IC50
recorded.measurement: 23700
//
smiles.data: CCOc1cc(C(C)(C)C)ccc1C1=N[C@@](C)(c2ccc(Cl)cc2)[C@@](C)(c2ccc(Cl)cc2)N1C(=O)N1CCCCC1
readout: IC50
recorded.measurement: 6800
//
smiles.data: CCOc1cc(C(C)(C)C)ccc1C1=N[C@@](C)(c2ccc(Cl)cc2)[C@@](C)(c2ccc(Cl)cc2)N1C(=O)N1CCN(CCNS(C)(=O)=O)CC1
readout: IC50
recorded.measurement: 300
//
smiles.data: COc1ccc(C2=N[C@@H](c3ccc(Cl)cc3)[C@@H](c3ccc(Cl)cc3)N2C(=O)N2CCNC(=O)C2)c(OC(C)C)c1
readout: IC50
recorded.measurement: 1500
//
smiles.data: CCOc1cc(C(C)(C)C)ccc1C1=N[C@@](C)(c2ccc(Cl)cc2)[C@@](C)(c2ccc(Cl)cc2)N1C(=O)N1CCN(CC(=O)N2CCOCC2)CC1
readout: IC50
recorded.measurement: 600

* * *

# experimental.details: Apparent half life in mouse at 50 mg/kg, po
# Format: ADME, organism-based
# Set-up: dose 50 mg/kg, route oral
# details: in vivo, read-out: t1/2(app) (converted)

smiles.data: CCOc1cc(C(C)(C)C)ccc1C1=N[C@@](C)(c2ccc(Cl)cc2)[C@@](C)(c2ccc(Cl)cc2)N1C(=O)N1CCN(CCCS(C)(=O)=O)CC1
half-life / h: 8.8
//
smiles.data: CCOc1cc(C(C)(C)C)ccc1C1=N[C@@](C)(c2ccc(Cl)cc2)[C@@](C)(c2ccc(Cl)cc2)N1C(=O)N1CCN(C(C)=O)CC1
half-life / h: 2.4
//
smiles.data: CCOc1cc(C(C)(C)C)ccc1C1=N[C@@](C)(c2ccc(Cl)cc2)[C@@](C)(c2ccc(Cl)cc2)N1C(=O)N1CCN(CCNC(C)=O)CC1
half-life / h: 2.3
//
smiles.data: CCOc1cc(C(C)(C)C)ccc1C1=N[C@@](C)(c2ccc(Cl)cc2)[C@@](C)(c2ccc(Cl)cc2)N1C(=O)N1CCN(CC(=O)N2CCCC2)CC1
half-life / h: 4.7

* * *

# experimental.details: AUClast in mouse at 100 mg/kg, po
# Type: ADME, organism-based
# Parameters: time 0 - last, dose 100 mg/kg, route oral
# details: plasma

smiles.data: COc1ccc(C2=N[C@@H](c3ccc(Cl)cc3)[C@@H](c3ccc(Cl)cc3)N2C(=O)N2CCNC(=O)C2)c(OC(C)C)c1
value.units: ng·h/mL
AUC(0-t): 65000
